Experiment: Antagonist activity at CXCR2 expressed in CHO cells assessed as inhibition of IL-8-induced chemotaxis
pIC50: −log10 of the molar value.

- structure-as-smiles: "CCN(Nc1c(Nc2cccc(C(=O)N(C)C)c2O)c(=O)c1=O)C(C)=O"
  pIC50: 5.90
- structure-as-smiles: "CCN(Nc1c(Nc2cccc(C(=O)N(C)C)c2O)c(=O)c1=O)c1ccccc1"
  pIC50: 7.27
- structure-as-smiles: "CCN(Nc1c(Nc2cccc(C(=O)N(C)C)c2O)c(=O)c1=O)C(=O)c1ccc(F)cc1"
  pIC50: 6.08
